// data source = patent EP4603105A1

Listed next: entries and their corresponding Kd.
# system-under-test: GDP-bound KRAS wild-type protein (Homo sapiens)
# test-protocol: Binding to KRAS by surface plasmon resonance (SPR), dissociation constant KD
# condition-description: 1:1 binding model
Where a SMILES comes first, the peptide text is derived from it. Bridges are numbered along the chain shown (N, C = ends). [ ]: non-standard residue; d: D form. The star is where a group is joined. hPhe(3-Cl-4-CF3) = N[C@@H](CCc1ccc(C(F)(F)F)c(Cl)c1)C(=O)O; NPrPhe(4-CF3) = CCCN[C@@H](Cc1ccc(C(F)(F)F)cc1)C(=O)O; Pro(4-spirocPr) = O=C(O)[C@@H]1CC2(CC2)CN1; NMeGly(cPent) = CN[C@H](C(=O)O)C1CCCC1; NMeD = CN[C@@H](CC(=O)O)C(=O)O; NMeL = CN[C@@H](CC(C)C)C(=O)O; Morpholide = C1CN(*)CCO1; Ac5c = NC1(C(=O)O)CCCC1; Aze = O=C(O)[C@@H]1CCN1; Sar = CNCC(=O)O
// units = nM; emit number, no label

Consider the following illustrative entries.
compound	system-under-test	quantity	unit-of-measure	recorded-number
CCC[C@H]1C(=O)N[C@@H]([C@@H](C)CC)C(=O)N(C)CC(=O)N(C)[C@H]2C/C=C\CCN(C2=O)[C@@H](CC2CCCCC2)C(=O)N(C)CC(=O)N[C@@H](CCc2ccc(C(F)(F)F)c(OC)c2)C(=O)N2C[C@@H](C)C[C@H]2C(=O)N(C)C2(CCC2)C(=O)N(C)[C@@H](C2CCCC2)C(=O)N(C)[C@H](C(=O)N(C)C)CC(=O)N1C	GDP-bound KRAS wild-type protein (Homo sapiens)	Kd	nM	0.54
CCCN1C(=O)CN(C)C(=O)[C@@H]2CCN2C(=O)[C@H]([C@@H](C)CC)NC(=O)[C@H](CC(C)C)N(C)C(=O)C[C@@H](C(=O)N2CCOCC2)N(C)C(=O)[C@H](C2CCCC2)N(C)C(=O)C2(CCCC2)NC(=O)[C@@H]2CC3(CC3)CN2C(=O)[C@H](CCc2ccc(C(F)(F)F)c(Cl)c2)NC(=O)CN(C)C(=O)[C@@H]1Cc1ccc(C(F)(F)F)cc1 [PP0308] ([NMeL]I[Aze][Sar][NPrPhe(4-CF3)][Sar][hPhe(3-Cl-4-CF3)][Pro(4-spirocPr)][Ac5c][NMeGly(cPent)][NMeD]-Morpholide; lactam N-11)	GDP-bound KRAS wild-type protein (Homo sapiens)	Kd	nM	1.1
CC[C@H](C)[C@@H]1NC(=O)[C@H](COC)N(C)C(=O)C[C@@H](C(=O)N(C)C)N(C)C(=O)[C@H](C2CCCC2)N(C)C(=O)C2(CC(C)(C)C2)NC(=O)CNC(=O)[C@H](CCc2ccc(C(F)(F)F)c(Cl)c2)NC(=O)CN(C)C(=O)[C@H](Cc2ccc(C(F)(F)F)cc2)N2CC/C=C\C[C@@H](C2=O)N(C)C(=O)CN(C)C1=O	GDP-bound KRAS wild-type protein (Homo sapiens)	Kd	nM	0.33
CCOC[C@H]1C(=O)N[C@@H]([C@@H](C)CC)C(=O)N(C)CC(=O)N(C)[C@H]2C/C=C\CCN(C2=O)[C@@H](Cc2ccc(C)cc2)C(=O)N(C)CC(=O)N[C@@H](CCc2ccc(C(F)(F)F)c(Cl)c2)C(=O)N2C[C@@H](C)C[C@H]2C(=O)NC2(CC(C)(C)C2)C(=O)N(C)[C@@H](C2CCCC2)C(=O)N(C)[C@H](C(=O)N(CC)CC)CC(=O)N1C	GDP-bound KRAS wild-type protein (Homo sapiens)	Kd	nM	0.51
CCC(CC)[C@H]1C(=O)N(C)[C@H](C(=O)N(C)C)CC(=O)N(C)[C@@H](COC)C(=O)N[C@@H]([C@@H](C)CC)C(=O)N(C)CC(=O)N(C)[C@H]2C/C=C\CCN(C2=O)[C@@H](Cc2ccc(C)cc2)C(=O)N(C)CC(=O)N[C@@H](CCc2ccc(Cl)c(Cl)c2)C(=O)N2C[C@H](OC3CCC3)C[C@H]2C(=O)N(C)C2(CC(C)(C)C2)C(=O)N1C	GDP-bound KRAS wild-type protein (Homo sapiens)	Kd	nM	0.39

With those in mind, consider the next compound.
Memo: `CCOC[C@H]1C(=O)N[C@@H]([C@@H](C)CC)C(=O)N(C)CC(=O)N(C)[C@H]2C/C=C\CCN(C2=O)[C@@H](CC2CCC(F)(F)CC2)C(=O)N(C)CC(=O)N[C@@H](CCc2ccc(C(F)(F)F)c(Cl)c2)C(=O)N2C[C@@H](C)C[C@H]2C(=O)NC2(CC(C)(C)C2)C(=O)N(C)[C@@H](C(CC)CC)C(=O)N(C)[C@H](C(=O)N(C)C)CC(=O)N1C` , reported Kd: 1.5

====

# system-under-test: GDP-bound KRAS wild-type protein (Homo sapiens)
# test-protocol: Binding to KRAS by surface plasmon resonance (SPR), dissociation constant KD
# condition-description: Single Cycle Kinetics, 1:1 binding model
# Protocol: Surface plasmon resonance was used to analyze the binding affinity of compounds for KRAS, NRAS, and HRAS. […] The resulting sensorgram was subjected to curve fitting based on a 1:1 binding model on Biacore Insight Evaluation Software or T200 Evaluation Software, and thereby the dissociation constant KD of each compound with respect to KRAS, NRAS, and HRAS was determined. […]
Listed next: entries and their corresponding pKd.
Scale: pKd equals -log10([C]), with [C] in mol/L.

Consider the following illustrative entries.
line-notation	pKd
CC[C@H](C)[C@@H]1NC(=O)[C@H](CC)N(C)C(=O)C[C@@H](C(=O)N(C)C)N(C)C(=O)[C@H](C2CCCC2)N(C)C(=O)C2(CCC2)NC(=O)[C@@H]2CC(F)(F)CN2C(=O)[C@H](CCc2cc(F)c(C(F)(F)F)c(F)c2)NC(=O)CN(C)C(=O)[C@H](CC2CCCCC2)N2CC/C=C\C[C@@H](C2=O)N(C)C(=O)CN(C)C1=O	9.92
C=CC[C@H]1C(=O)N[C@@H]([C@@H](C)CC)C(=O)N(C)CC(=O)N(C)[C@H]2C/C=C\CCN(C2=O)[C@@H](CC2CCC(F)(F)CC2)C(=O)N(C)CC(=O)N[C@@H](CCc2cc(F)c(C(F)(F)F)c(F)c2)C(=O)N2C[C@H](OCC)C[C@H]2C(=O)NC2(CCC2)C(=O)N(C)[C@@H](C2CCCC2)C(=O)N(C)[C@H](C(=O)N(C)C)CC(=O)N1C	10.02

With those in mind, consider the next compound.
Memo: `CCO[C@@H]1C[C@H]2C(=O)NC3(CCC3)C(=O)N(C)[C@@H](C3CCCC3)C(=O)N(C)[C@H](C(=O)N(C)C)CC(=O)N(C)[C@@H](Cc3ccc(C#N)cc3)C(=O)N[C@@H]([C@@H](C)CC)C(=O)N(C)CC(=O)N(C)[C@H]3CCCCCN(C3=O)[C@@H](Cc3ccc(C(F)(F)F)cc3)C(=O)N(C)CC(=O)N[C@@H](CCc3cc(F)c(C(F)(F)F)c(F)c3)C(=O)N2C1` , reported pKd: 9.74

====

# system-under-test: GDP-bound KRAS wild-type protein (Homo sapiens, UniProt P01116)
# Sequence (P01116 1-188 isoform P01116-2): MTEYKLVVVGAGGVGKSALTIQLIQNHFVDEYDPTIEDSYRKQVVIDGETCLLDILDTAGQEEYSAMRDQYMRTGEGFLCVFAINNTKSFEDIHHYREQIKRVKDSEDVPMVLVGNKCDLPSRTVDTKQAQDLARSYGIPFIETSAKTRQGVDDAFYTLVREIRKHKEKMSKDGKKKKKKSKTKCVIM
# test-protocol: Binding to KRAS by surface plasmon resonance (SPR), dissociation constant KD
# condition-description: Single Cycle Kinetics, 1:1 binding model
*1 amine or outer side, *2 acyl side, *3 side chain or, on linkers, in order; H or OH if unused. Where a SMILES comes first, the peptide text is derived from it. Bridges are numbered along the chain shown (N, C = ends). [ ]: non-standard residue; d: D form. The star is where a group is joined. hPhe(3-Cl-4-CF3) = N[C@@H](CCc1ccc(C(F)(F)F)c(Cl)c1)C(=O)O; X8 = CCCN([C@@H](COCCC(C)C)C(=O)[*:2])[*:1]; NMeGly(cPent) = CN[C@H](C(=O)O)C1CCCC1; NMeD = CN[C@@H](CC(=O)O)C(=O)O; NMeL = CN[C@@H](CC(C)C)C(=O)O; Morpholide = C1CN(*)CCO1; NMeA = CN[C@@H](C)C(=O)O; Aze = O=C(O)[C@@H]1CCN1; Ac4c = NC1(C(=O)O)CCC1; Sar = CNCC(=O)O
Listed next: entries and their corresponding pKd.
Scale: pKd equals -log10([C]), with [C] in mol/L.

compound	pKd
CCO[C@@H]1C[C@H]2C(=O)NC3(CCC3)C(=O)N(C)[C@@H](C(CC)CC)C(=O)N(C)[C@H](C(=O)N(C)C)CC(=O)N(C)[C@@H](CC3CCCC3)C(=O)N[C@@H]([C@@H](C)CC)C(=O)N(C)CC(=O)N(C)[C@H]3C/C=C\CCN(C3=O)[C@@H](Cc3ccc(C(F)(F)F)cc3)C(=O)N(C)CC(=O)N[C@@H](CCc3ccc(C(F)(F)F)c(OC)c3)C(=O)N2C1	9.55

Memo: `CCO[C@@H]1C[C@H]2C(=O)NC3(CCC3)C(=O)N(C)[C@@H](C3CCCC3)C(=O)N(C)[C@H](C(=O)N(C)C)CC(=O)N(C)[C@@H](CC3CC3)C(=O)N[C@@H]([C@@H](C)CC)C(=O)N(C)CC(=O)N(C)[C@H]3C/C=C\CCN(C3=O)[C@@H](CC3CCCCC3)C(=O)N(C)CC(=O)N[C@@H](CCc3cc(F)c(C(F)(F)F)c(F)c3)C(=O)N2C1` , reported pKd: 9.70

Memo: `CCO[C@@H]1C[C@H]2C(=O)NC3(CCC3)C(=O)N(C)[C@@H](C3CCCC3)C(=O)N(C)[C@H](C(=O)N3CCOCC3)CC(=O)N(C)[C@@H](CC)C(=O)N[C@@H]([C@@H](C)CC)C(=O)N(C)CC(=O)N(C)[C@H]3C[C@@H](C)[C@@H](C)CN(C3=O)[C@@H](Cc3ccc(C(F)(F)F)cc3)C(=O)N(C)CC(=O)N[C@@H](CCc3ccc(C(F)(F)F)c(Cl)c3)C(=O)N2C1` , reported pKd: 10.26

Memo: `CCO[C@@H]1C[C@H]2C(=O)NC3(CCC3)C(=O)N(C)[C@@H](C3CCCC3)C(=O)N(C)[C@H](C(=O)N(C)C)CC(=O)N(C)[C@@H](Cc3ccc(C#N)cc3)C(=O)N[C@@H]([C@@H](C)CC)C(=O)N(C)CC(=O)N(C)[C@H]3CCCCCN(C3=O)[C@@H](Cc3ccc(F)cc3)C(=O)N(C)CC(=O)N[C@@H](CCc3cc(F)c(C(F)(F)F)c(F)c3)C(=O)N2C1` , reported pKd: 10.21

Memo: `CCC[C@H]1C(=O)N[C@@H]([C@H](C)CC)C(=O)N(C)CC(=O)N(C)[C@H]2C/C=C\CCN(C2=O)[C@@H](Cc2ccc(C)cc2)C(=O)N(C)CC(=O)N[C@@H](CCc2ccc(C(F)(F)F)c(Cl)c2)C(=O)N2C[C@H](OCC)C[C@H]2C(=O)NC2(CC(C)(C)C2)C(=O)N(C)[C@@H](CC(C)(C)C)C(=O)N(C)[C@H](C(=O)N(C)C)CC(=O)N1C` , reported pKd: 8.80

Memo: CCCN1C(=O)[C@@H]2CCN2C(=O)[C@H](C)N(C)C(=O)[C@H]([C@@H](C)CC)NC(=O)[C@H](CC(C)C)N(C)C(=O)C[C@@H](C(=O)N2CCOCC2)N(C)C(=O)[C@H](C2CCCC2)N(C)C(=O)C2(CCC2)NC(=O)[C@@H]2CCCN2C(=O)[C@H](CCc2ccc(C(F)(F)F)c(Cl)c2)NC(=O)CN(C)C(=O)[C@@H]1COCCC(C)C [PP1819] ([NMeL]I[NMeA][Aze][X8][Sar][hPhe(3-Cl-4-CF3)]P[Ac4c][NMeGly(cPent)][NMeD]-Morpholide; lactam N-11) , reported pKd: 9.00

Memo: `CC[C@H](C)[C@@H]1NC(=O)[C@H](CC(C)C)N(C)C(=O)C[C@@H](C(=O)N(C)C)N(C)C(=O)[C@H](C2CCCC2)N(C)C(=O)C2(CCC2)N(C)C(=O)[C@@H]2CCCN2C(=O)[C@H](CCc2cc(F)c(C(F)(F)F)c(F)c2)NC(=O)CN(C)C(=O)[C@H](Cc2ccc(C)cc2)N2CC/C=C\C[C@@H](C2=O)N(C)C(=O)CN(C)C1=O` , reported pKd: 10.38

Memo: `CC[C@H](C)[C@@H]1NC(=O)[C@H](CC)N(C)C(=O)C[C@@H](C(=O)N(C)C)N(C)C(=O)[C@H](C2CCCC2)N(C)C(=O)C2(CCC2)NC(=O)[C@@H]2C[C@H](C)CN2C(=O)[C@H](CCc2cc(F)c(C(F)(F)F)c(F)c2)NC(=O)CN(C)C(=O)[C@H](CC2CCCCC2)N2CC/C=C\C[C@@H](C2=O)N(C)C(=O)CN(C)C1=O` , reported pKd: 9.60
